- Measurement target: CCR4 (Homo sapiens)
- Construct: host or cells: CHO-K1
- Sequence (P51679 whole entry): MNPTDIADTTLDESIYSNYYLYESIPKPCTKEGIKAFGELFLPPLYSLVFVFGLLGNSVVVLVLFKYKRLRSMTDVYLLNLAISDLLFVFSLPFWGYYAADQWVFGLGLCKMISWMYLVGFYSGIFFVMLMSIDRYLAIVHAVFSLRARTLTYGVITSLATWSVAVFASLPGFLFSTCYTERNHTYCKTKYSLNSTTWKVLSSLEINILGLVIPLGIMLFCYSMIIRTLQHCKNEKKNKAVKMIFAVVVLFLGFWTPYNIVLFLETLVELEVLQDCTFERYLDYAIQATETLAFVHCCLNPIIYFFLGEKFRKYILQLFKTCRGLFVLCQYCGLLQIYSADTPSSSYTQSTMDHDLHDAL
- Test: PathHunter eXpress CCR4 CHO-K1 β-Arrestin GPCR Assay, antagonist format with CCL22
- Assay type: cell-based
- Conditions used: 10 nM CCL22, 1.9 uM
Outcome measure: Raw Data
Form rule: numeric answer, no unit written next to it.

// worked examples, Raw Data included
{"columns": ["Sequence text", "Outcome measure", "Value measured"],
 "data": [
  ["ACLNGCRNTNSQCA [24-11-00-N001, bicyclic peptide ligand, TATA scaffold, from CCR4 cell-based selection]", "Raw Data", 153353],
  ["ACQTLCNTAEDIRCA [24-16-00-N001, bicyclic peptide ligand, TBMB scaffold, from CCR4 cell-based selection]", "Raw Data", 143871],
  ["ACLSCARHGNQCA [24-12-00-N001, bicyclic peptide ligand, TATA scaffold, from CCR4 cell-based selection]", "Raw Data", 197426],
  ["ACQLTCLTPARQPGCA [24-14-00-N001, bicyclic peptide ligand, TATA scaffold, from CCR4 cell-based selection]", "Raw Data", 143688],
  ["ACPLMSSVNCTAGCA [24-13-00-N001, bicyclic peptide ligand, TBMB scaffold, from CCR4 cell-based selection]", "Raw Data", 194535]
]}

[Q] I am curious: what Raw Data value has been reported for ACRAVHSLRCLTTCA [24-17-00-N001, bicyclic peptide ligand, TATA scaffold, from CCR4 cell-based selection] ?
[A] 132070

[Q] # iterate: ACQLTCLPPPRQPGCA [24-15-00-N001, bicyclic peptide ligand, TATA scaffold, from CCR4 cell-based selection]
[A] 149995
